Listed binders paired with reported kon
biological target: Human CD33 R69G (human, UniProt P20138 18-259); test: SPR captured Fab
Sequence (P20138 18-259 R69G): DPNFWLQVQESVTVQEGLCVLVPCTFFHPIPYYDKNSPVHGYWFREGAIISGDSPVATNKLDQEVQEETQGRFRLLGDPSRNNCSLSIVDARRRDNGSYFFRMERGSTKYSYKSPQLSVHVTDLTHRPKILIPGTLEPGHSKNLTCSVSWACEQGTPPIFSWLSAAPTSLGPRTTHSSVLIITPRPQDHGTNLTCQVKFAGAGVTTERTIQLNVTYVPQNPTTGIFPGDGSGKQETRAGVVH
Note: unit M⁻¹ s⁻¹ is implicit; provide only the numeric part.

Sample records with kon:
ADI-10159 Fab (Fab, V domains shown, Fab fragment; also called Ab1; G59) VH: EVQLVESGGGLVQPGGSLRLSCAASGFTFSSYGMSWVRQAPGKGLEWVANIKQDGSEKYYVDSVKGRFTISRDNAKNSLYLQMNSLRAEDTAVYYCAREGGPYYDSSGYFVYYGMDVWGQGTTVTVSS VL: DIQMTQSPSTLSASVGDRVTITCRASQSISSWLAWYQQKPGKAPKLLIYDASSLESGVPSRFSGSGSGTEFTLTISSLQPDDFATYYCQQYESFPTFGGGTKVEIK = 426000
ADI-11819 Fab (Fab, V domains shown, Fab fragment; also called Ab8) VH: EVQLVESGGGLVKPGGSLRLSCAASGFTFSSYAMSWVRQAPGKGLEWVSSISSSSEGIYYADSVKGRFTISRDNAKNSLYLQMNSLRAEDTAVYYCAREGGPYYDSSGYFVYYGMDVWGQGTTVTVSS VL: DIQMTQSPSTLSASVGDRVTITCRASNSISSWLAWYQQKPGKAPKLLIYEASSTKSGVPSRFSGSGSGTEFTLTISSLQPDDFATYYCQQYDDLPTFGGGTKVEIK = 2.78e+06

Input: Consider the binder shown here: ADI-11830 Fab (Fab, V domains shown, Fab fragment; also called Ab9) VH: EVQLVESGGGLVQPGGSLRLSCAASGFTFSSYWMSWVRQAPGKGLEWVANINTDGSEVYYVDSVKGRFTISRDNAKNSLYLQMNSLRAEDTAVYYCARDVGPGIAYQGHFDYWGQGTLVTVSS VL: DIQMTQSPSSLSASVGDRVTITCRASQVIYSYLNWYQQKPGKAPKLLIYAASSLKSGVPSRFSGSGSGTDFTLTISSLQPEDFATYYCQQVYDTPLTFGGGTKVEIK What is its recorded kon?
Output: 2.27e+06
